assay: C. albicans growth with fluconazole, confirmation, fluorescence, retest (AID 2467); type: functional, cell-based
Activity calls are given as the source filed them.
Record form. Attribute: EC50. Fill in for each entry.

SMILES INPUT: N#Cc1cnn(-c2nc(O)c3c4c(sc3n2)CCCC4)c1N
TEST READOUT: EC50
RESULT: 0.131 µM (active)
//
SMILES INPUT: Cc1nc2c(C(=O)NCCC(C)C)cnn2c(O)c1Cc1ccccc1F
TEST READOUT: EC50
RESULT: 4.22 µM (active)
//
SMILES INPUT: CN1/C(=C/C(=O)c2cccs2)Sc2ccccc21
TEST READOUT: EC50
RESULT: 2.02 µM (active)

Q: Return reported EC50; argument: C=CCn1c(SCc2ccc(C(=O)Nc3ccccc3)cc2)nnc1-c1ccccc1
Result: > 38 µM (not active)

###

biological target: Protein skinhead-1 (Caenorhabditis elegans, UniProt P34707); type: functional
Sequence (P34707 whole entry): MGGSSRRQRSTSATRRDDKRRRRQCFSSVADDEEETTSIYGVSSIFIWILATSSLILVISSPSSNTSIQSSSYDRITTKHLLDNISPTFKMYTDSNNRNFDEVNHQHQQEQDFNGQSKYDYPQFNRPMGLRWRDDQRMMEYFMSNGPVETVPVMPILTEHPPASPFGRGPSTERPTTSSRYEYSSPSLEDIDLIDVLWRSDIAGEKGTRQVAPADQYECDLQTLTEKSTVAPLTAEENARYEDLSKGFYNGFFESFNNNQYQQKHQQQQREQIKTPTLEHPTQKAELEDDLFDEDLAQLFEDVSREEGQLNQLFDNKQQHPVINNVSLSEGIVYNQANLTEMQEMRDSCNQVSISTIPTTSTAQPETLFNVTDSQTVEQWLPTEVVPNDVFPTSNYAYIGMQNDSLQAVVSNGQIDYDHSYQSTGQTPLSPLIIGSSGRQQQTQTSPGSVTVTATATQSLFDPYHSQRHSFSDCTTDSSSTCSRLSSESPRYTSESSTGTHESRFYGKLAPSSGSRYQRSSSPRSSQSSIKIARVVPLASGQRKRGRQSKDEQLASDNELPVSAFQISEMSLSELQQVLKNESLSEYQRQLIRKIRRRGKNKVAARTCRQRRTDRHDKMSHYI
Activity calls are given as the source filed them.
Thanks in advance; please answer with one of these: active, inactive

Sample answers from the record:
SMILES INPUT: Clc1ccccc1/C=C/c1ccnc2ccccc12
GROUP LABEL: inactive
//
SMILES INPUT: C#CCSc1nnc(-c2cccc3ccccc23)o1
GROUP LABEL: active
//
SMILES INPUT: Cc1ccc(CN2CCC(n3nccc3NC(=O)c3ccccc3C)CC2)o1
GROUP LABEL: inactive
//
SMILES INPUT: CCOC(=O)Nc1cccc2c1-c1ccc([N+](=O)[O-])cc1C2=O
GROUP LABEL: inactive

Q: Short answer needed: outcome of this test for N=c1c2c(-c3ccccc3)c(-c3ccccc3)n(Cc3ccccc3)c2ncn1CCCO ?
Result: inactive

Q: Short answer needed: outcome of this test for O=C1/C(=C/c2cccs2)CCC/C1=C\c1cccs1 ?
Result: inactive

Q: Short answer needed: outcome of this test for Cc1cc2ccccc2n1CCNC(=O)C(C)C ?
Result: inactive

Q: Short answer needed: outcome of this test for Cc1ccc(NC(=O)c2cc(-c3ccco3)on2)cc1C ?
Result: inactive

###

molecular target: Mitogen-activated protein kinase 10 (Homo sapiens, UniProt P53779); test: Dose response biochemical screening assay for inhibitors of c-Jun N-Terminal Kinase 3 (JNK3). [Related pubchem assays: 746 ]
Sequence (P53779 whole entry): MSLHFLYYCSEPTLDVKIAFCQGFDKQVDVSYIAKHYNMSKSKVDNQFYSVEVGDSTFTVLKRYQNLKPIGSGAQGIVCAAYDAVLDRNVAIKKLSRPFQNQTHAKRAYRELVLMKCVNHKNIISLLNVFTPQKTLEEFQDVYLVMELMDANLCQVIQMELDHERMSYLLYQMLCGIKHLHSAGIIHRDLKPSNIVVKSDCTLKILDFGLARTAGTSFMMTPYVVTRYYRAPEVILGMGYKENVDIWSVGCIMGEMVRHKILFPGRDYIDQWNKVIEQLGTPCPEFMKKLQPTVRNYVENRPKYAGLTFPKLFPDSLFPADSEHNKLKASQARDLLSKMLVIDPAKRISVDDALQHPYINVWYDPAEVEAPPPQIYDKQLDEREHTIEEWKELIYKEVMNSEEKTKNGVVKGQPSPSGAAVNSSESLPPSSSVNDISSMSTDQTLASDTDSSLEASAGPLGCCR
TEST READOUT: IC50

MOLECULE: CN(C)/C=N/C(=O)/C(C#N)=C1\CCc2ccccc2N1
IC50: > 93.1 µM (not active)

MOLECULE: COc1ccc(OC)c(Nc2nc(N)nc(-c3cc4ccccc4o3)n2)c1
IC50: 47.8 µM (not active)

MOLECULE: COc1ccc(-c2c3c([nH]c(=S)c2C#N)CCC3)cc1
IC50: 17.6 µM (not active)

Continue with the molecule presented below.
Q: Return reported IC50; argument: CCn1c(C(C)NC(C)=O)nc2ccccc21 (centres undefined)
Result: > 93.1 µM (not active)

###

target: Nonstructural protein 1 (Influenza A virus); format: functional, Influenza A virus (A/California/07/2009(H1N1))
Sequence (Q194T2 whole entry): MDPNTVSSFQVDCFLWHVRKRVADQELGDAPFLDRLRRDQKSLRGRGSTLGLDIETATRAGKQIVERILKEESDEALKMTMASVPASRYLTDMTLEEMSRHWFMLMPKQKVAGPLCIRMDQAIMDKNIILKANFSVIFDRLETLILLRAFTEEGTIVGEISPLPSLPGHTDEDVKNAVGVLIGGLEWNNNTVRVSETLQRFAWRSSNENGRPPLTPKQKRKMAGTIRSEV
The source made the active and inactive calls.
Record form. Attribute: IC50. Fill in for each entry.

Look over these answered cases.
SMILES INPUT: Cc1ccc(S(=O)(=O)N(C)CCCC(=O)Nc2cc(C)ccc2C)cc1
IC50: 22.9 µM (active)
//
SMILES INPUT: Nc1ccc(Nc2ccccc2)cc1
IC50: 45.3 µM (active)
//
SMILES INPUT: C[n+]1c(/C=C/c2ccc(O)cc2)ccc2ccccc21
IC50: > 100 µM (active)
//
SMILES INPUT: CC(=NNC(=S)N1CCN(C2CCCCCC2)CC1)c1ccccn1
IC50: 1.66 µM (active)

Q: Return reported IC50; argument: CC1(C)Oc2ccc3ccc(=O)oc3c2C(/C=N/NC(N)=S)=C1O
Result: 26.6 µM (active)
